- assayed_target: intracellular PLA2 (cytosolic PLA2, cPLA2) (Homo sapiens)
- assay_details: Intracellular PLA2 (cPLA2) inhibitory activity (14C-arachidonyl phosphatidylcholine substrate)
- run_conditions: 2 μM radiolabelled phosphatidylcholine, 1 μM dioleoylglycerol, 1 mM CaCl2, pH 7.4; read-out: c-PLA2 Inhibition IC50
Entries and their pIC50 values follow.
A value of pIC50 is the negative decimal logarithm of a concentration given in moles per litre.

Example results:
molecule | readout_type | recorded_value
COc1c(C)c(OC(=O)c2c(C)c(C)c(OCCCN(S(=O)(=O)c3ccccc3)S(=O)(=O)c3ccccc3)c(C)c2OC)c(C)c(C)c1C(=O)O [Example 51] | pIC50 | 5.38
COc1c(C)c(OC(=O)c2c(C)c(C)c(OCCCSc3ccc(F)cc3)c(C)c2OC)c(C)c(C)c1C(=O)O [Example 10] | pIC50 | 4.89
COc1c(C)c(OC(=O)c2c(C)c(C)c(OCCC=C(c3ccccc3)c3ccccc3)c(C)c2OC)c(C)c(C)c1C(=O)O [Example 48] | pIC50 | 5.52
COc1c(C)c(OC(=O)c2c(C)c(C)c(OCCCOc3ccc(F)cc3)c(C)c2OC)c(C)c(C)c1C(N)=O [Example 44] | pIC50 | 5.03

For the next question, use this molecule.
// sample COc1c(C)c(OC(=O)c2c(C)c(C)c(OCCCOc3ccccc3F)c(C)c2OC)c(C)c(C)c1C(=O)O [Example 33] , its pIC50 was 4.92

* * *

Entries and their pIC50 values follow.
- assayed_target: Human secretory PLA2 (Homo sapiens)
- Sequence (P14555 21-144): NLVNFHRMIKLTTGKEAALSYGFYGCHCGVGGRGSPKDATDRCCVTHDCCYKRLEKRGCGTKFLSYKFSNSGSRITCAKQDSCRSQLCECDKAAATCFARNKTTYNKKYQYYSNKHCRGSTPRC
- assay_details: Secretory PLA2 inhibitory activity (diheptanoyl thio PC substrate, absorbance at 405 nm)
- run_conditions: diheptanoyl thio PC 1 mM, Triton X100 0.3 mM, pH 7.3, CaCl2 10 mM, 30 minutes, read-out: s-PLA2 Inhibition IC50
A value of pIC50 is the negative decimal logarithm of a concentration given in moles per litre.

Example results:
smiles_data | recorded_value
COc1c(C)c(OC(=O)c2c(C)c(C)c(OCCCOc3cccc(F)c3F)c(C)c2OC)c(C)c(C)c1C(=O)O | 4.92
COc1c(C)c(OC(=O)c2c(C)c(C)c(OCCCOc3ccc4ccccc4c3)c(C)c2OC)c(C)c(C)c1C(=O)O | 4.80

For the next question, use this compound.
// sample COc1c(C)c(OC(=O)c2c(C)c(C)c(OCCCOc3cc4c(cc3C(c3ccccc3)c3ccccc3)OCO4)c(C)c2OC)c(C)c(C)c1C(=O)O , its pIC50 was 4.89

* * *

- assayed_target: intracellular PLA2 (cytosolic PLA2, cPLA2) (Homo sapiens, UniProt P47712)
- Sequence (P47712 whole entry): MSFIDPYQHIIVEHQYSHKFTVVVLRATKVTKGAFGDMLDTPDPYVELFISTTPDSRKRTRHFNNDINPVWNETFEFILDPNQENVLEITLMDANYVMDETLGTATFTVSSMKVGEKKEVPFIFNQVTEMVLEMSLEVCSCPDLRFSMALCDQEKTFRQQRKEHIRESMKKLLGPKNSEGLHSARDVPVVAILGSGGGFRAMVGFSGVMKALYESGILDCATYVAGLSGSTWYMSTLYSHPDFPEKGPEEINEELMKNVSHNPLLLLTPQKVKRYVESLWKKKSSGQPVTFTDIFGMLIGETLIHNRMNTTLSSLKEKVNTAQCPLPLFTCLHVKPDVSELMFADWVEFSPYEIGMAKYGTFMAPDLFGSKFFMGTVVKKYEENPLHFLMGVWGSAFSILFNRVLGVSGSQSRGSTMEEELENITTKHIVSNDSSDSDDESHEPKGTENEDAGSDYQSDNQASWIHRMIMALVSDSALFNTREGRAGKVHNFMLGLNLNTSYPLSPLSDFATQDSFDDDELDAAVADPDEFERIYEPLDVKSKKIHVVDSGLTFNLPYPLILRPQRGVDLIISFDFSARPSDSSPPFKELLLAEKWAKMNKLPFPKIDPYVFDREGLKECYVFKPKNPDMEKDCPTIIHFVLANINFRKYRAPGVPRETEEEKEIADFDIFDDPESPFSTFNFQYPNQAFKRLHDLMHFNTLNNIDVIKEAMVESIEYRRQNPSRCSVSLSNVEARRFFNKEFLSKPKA
- assay_details: Intracellular PLA2 (cPLA2) inhibitory activity (14C-arachidonyl phosphatidylcholine substrate)
- run_conditions: 2 μM radiolabelled phosphatidylcholine, 1 μM dioleoylglycerol, 1 mM CaCl2, pH 7.4; read-out: c-PLA2 Inhibition IC50
- Protocol: cPLA2 activity was assayed according to the method described in R. M. Kramer, E. F. Roberts, J. Manetta and J. E. Putnam, J. Biol. Chem., 268 (8), 5268-5272 (1991). Briefly, intracellular PLA2 activity was assayed using supersonic treated […] which contain 1-palmitoyl-2-[^14 C]arachidonyl-sn-glycero-3-phosphocholine and sn-1, 2-dioleoylglycerol at a molar ratio of 2:1. This test mixture contained 1 mM CaCl2, 2 mM dithiothreitol, 150 mM NaCl, 50 mM Hepes, pH 7.4 and 0.1 mg/ml BSA. […]
Flag rule - IC50 less than 10 µM flags Criterion met; the remaining entries get Criterion not met.

Worked examples, 5 compounds total:
smiles_data | assigned_label
COc1c(C)c(OC(=O)c2c(C)c(C)c(OCCCNS(=O)(=O)c3ccc(F)cc3)c(C)c2OC)c(C)c(C)c1C(=O)O | Criterion not met
COc1c(C)c(OC(=O)c2c(C)c(C)c(OCCCCCCOc3ccc(C(F)(F)F)cc3)c(C)c2OC)c(C)c(C)c1C(=O)O | Criterion met
COc1c(C(C)(C)C)cc(SCCCCCCOc2c(C)c(C)c(C(=O)Oc3c(C)c(C)c(C(=O)O)c(OC)c3C)c(OC)c2C)cc1C(C)(C)C | Criterion met
COc1c(C)c(OC(=O)c2c(C)c(C)c(OCCCN(C)S(=O)(=O)c3ccc(F)cc3)c(C)c2OC)c(C)c(C)c1C(=O)O | Criterion not met
COc1c(C)c(OC(=O)c2c(C)c(C)c(OCCCOc3ccc(C(N)=O)cc3)c(C)c2OC)c(C)c(C)c1C(=O)O | Criterion not met

Incoming: Is it true that IC50 reported for COc1c(C)c(OC(=O)c2c(C)c(C)c(OCCCN(C(=O)OC(C)(C)C)S(C)(=O)=O)c(C)c2OC)c(C)c(C)c1C(=O)O is less than 10 µM?
Outgoing: Criterion not met

Incoming: Is it true that IC50 reported for COc1ccc(OCCCOc2c(C)c(C)c(C(=O)Oc3c(C)c(C)c(C(=O)O)c(OC)c3C)c(OC)c2C)cc1 is less than 10 µM?
Outgoing: Criterion not met

Incoming: Is it true that IC50 reported for COc1c(C)c(OC(=O)c2c(C)c(C)c(OCCCN3CCN(C(c4ccc(F)cc4)c4ccc(F)cc4)CC3)c(C)c2OC)c(C)c(C)c1C(=O)O is less than 10 µM?
Outgoing: Criterion not met
